Biological target: Kappa-type opioid receptor (Homo sapiens, UniProt P41145)
Sequence (P41145 whole entry): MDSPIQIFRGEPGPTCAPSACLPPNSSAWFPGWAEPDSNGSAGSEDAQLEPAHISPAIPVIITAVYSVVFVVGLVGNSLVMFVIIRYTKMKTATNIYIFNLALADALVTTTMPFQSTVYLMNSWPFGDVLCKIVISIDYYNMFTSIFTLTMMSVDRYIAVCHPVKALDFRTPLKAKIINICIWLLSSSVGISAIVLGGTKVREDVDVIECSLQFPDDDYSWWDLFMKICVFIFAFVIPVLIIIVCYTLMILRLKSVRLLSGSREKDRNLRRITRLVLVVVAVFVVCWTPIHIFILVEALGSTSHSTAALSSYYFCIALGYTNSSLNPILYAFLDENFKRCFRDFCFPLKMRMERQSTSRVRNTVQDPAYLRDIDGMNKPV
Test: Agonist activity at human kappa-type opioid receptor expressed in CHO-K1 cells assessed as forskolin-induced cAMP accumulation after 30 mins in presence of forskolin by luminescence-based HitHunter cAMP assay
Assay type: functional, cell-based
measurementType: EC50 (nM)

- COC(=O)[C@H]1[C@](C)([C@@H](CCOC(C)=O)C(=O)OC)CC[C@H]2C(=O)O[C@H](c3ccoc3)C[C@]12C: 13
- COC(=O)[C@H]1[C@](C)([C@@H](CC(OC)OC)C(=O)OC)CC[C@H]2C(=O)O[C@H](c3ccoc3)C[C@]12C: 11.7
